Measured values drawn from the SangsterLogP compilation for this set.

- assay.overview: method code SF, from DOI: 10.2307/3575799, PMID: 7199747
- run.parameters: pH 7.4
Property: logD; scope: individual molecules
Give the value as a plain number.

| molecule | number |
| --- | --- |
| O=COCCN(CCOC=O)C(=O)Cn1ccnc1[N+](=O)[O-] | -1.66 |
| CCC(=O)OCCN(CCOC(=O)CC)C(=O)Cn1ccnc1[N+](=O)[O-] | 0.44 |
| CC(C(=O)NCCO)n1ccnc1[N+](=O)[O-] (configuration not stated) | -1.16 |
| O=C(Cn1ccnc1[N+](=O)[O-])NC(CO)(CO)CO | -1.77 |
| NC(=O)Cn1ccnc1[N+](=O)[O-] | -1.22 |
| O=C(Cn1ccnc1[N+](=O)[O-])N(CCO)CCO | -1.59 |

Let us move to another entry and its logD.
**Query** Which logD is reported for this molecule? CC(C(=O)NCC(O)CO)n1ccnc1[N+](=O)[O-] (configuration not stated)
**Result** -1.64

---

- assay.overview: method code SF-AS, from DOI: 10.2307/3575799, PMID: 7199747
- run.parameters: pH 7.4
Property: logD; scope: individual compounds
Give the value as a plain number.

These recorded examples may help you get a feel for the data.
| compound | number |
| --- | --- |
| CC(O)CN(CC(C)O)C(=O)Cn1ccnc1[N+](=O)[O-] (stereo not drawn) | -0.96 |
| CC(=O)OCC(CNC(=O)Cn1ccnc1[N+](=O)[O-])OC(C)=O (stereo not drawn) | -0.77 |

**Query** Which logD is reported for this compound? "CC(=O)OCCN(CCOC(C)=O)C(=O)Cn1ccnc1[N+](=O)[O-]"
**Result** -0.64
